assayed target: T1, recombinant canine β NGF (canine, UniProt Q29074 110-229 (pig entry))
T1 construct: also called canine NGF
T1 chain: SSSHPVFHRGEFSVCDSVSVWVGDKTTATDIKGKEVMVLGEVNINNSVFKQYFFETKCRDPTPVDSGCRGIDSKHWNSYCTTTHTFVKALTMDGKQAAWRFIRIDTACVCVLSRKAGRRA
run description: SPR (Biacore), mAb captured on goat anti-mouse IgG Fc, canine NGF injected; Average
kon reference

PR-1254980 (antibody, mouse IgG1, V domains shown, also called 23F1; ML129-23F1.4G3) VH: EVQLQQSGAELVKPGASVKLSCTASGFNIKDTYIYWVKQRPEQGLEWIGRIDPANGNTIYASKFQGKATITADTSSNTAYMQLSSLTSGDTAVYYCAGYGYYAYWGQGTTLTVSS VL: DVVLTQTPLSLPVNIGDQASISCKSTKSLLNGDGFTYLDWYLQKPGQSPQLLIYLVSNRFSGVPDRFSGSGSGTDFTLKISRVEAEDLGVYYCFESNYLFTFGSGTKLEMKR = > 1e+07 M⁻¹ s⁻¹

Q: Give the measured kon of PR-1254973 (antibody, mouse IgG2b, V domains shown, also called 2B12; ML129-2B12.5G9) VH: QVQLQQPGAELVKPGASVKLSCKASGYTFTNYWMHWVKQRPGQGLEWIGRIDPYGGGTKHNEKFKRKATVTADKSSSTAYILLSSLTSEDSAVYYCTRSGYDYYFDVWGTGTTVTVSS VL: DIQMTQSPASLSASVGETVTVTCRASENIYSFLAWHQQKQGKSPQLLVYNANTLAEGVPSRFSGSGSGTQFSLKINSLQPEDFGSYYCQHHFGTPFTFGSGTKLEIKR .
Result: > 1e+07 M⁻¹ s⁻¹

Q: What do you have for PR-1254972 (antibody, mouse IgG2b, V domains shown, also called 20B10; ML129-20B10.3F4) VH: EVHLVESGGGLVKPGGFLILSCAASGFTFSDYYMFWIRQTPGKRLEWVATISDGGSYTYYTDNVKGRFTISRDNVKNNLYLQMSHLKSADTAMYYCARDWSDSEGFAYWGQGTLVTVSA VL: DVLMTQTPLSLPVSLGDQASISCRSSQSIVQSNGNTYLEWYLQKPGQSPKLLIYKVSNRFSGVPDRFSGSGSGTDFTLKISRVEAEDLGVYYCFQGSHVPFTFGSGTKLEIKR ?
Result: > 1e+07 M⁻¹ s⁻¹
